Target: human ALX receptor (Homo sapiens)
Experiment: Intracellular calcium measurements (FLIPR), agonistic activity in HEK293-hALXR-Gα16 cells
Conditions: Fluo-4 calcium FLIPR, normalized to WKYMVm 10 nM
MEASURED METRIC: EC50 (nM)

1: O=C(NCC1CCCO1)C1C(C(=O)Nc2ccc(Br)cc2)C2C=CC1C21CC1 (mixture of isomers)
2: COCCNC(=O)[C@H]1[C@H](C(=O)Nc2ncc(Br)s2)[C@@H]2C=C[C@H]1C21CC1 (racemic)
3: O=C(NC1CC1)[C@H]1[C@H](C(=O)Nc2ccc(Br)cc2)[C@@H]2C=C[C@H]1C21CC1 (racemic)
Endpoint returns the given molecules ordered by ascending EC50. Please respond with the labels ordered as the question requires. 1, 2, 3

###

Target: human ALX receptor (Homo sapiens, UniProt P25090)
Sequence (P25090 1-351): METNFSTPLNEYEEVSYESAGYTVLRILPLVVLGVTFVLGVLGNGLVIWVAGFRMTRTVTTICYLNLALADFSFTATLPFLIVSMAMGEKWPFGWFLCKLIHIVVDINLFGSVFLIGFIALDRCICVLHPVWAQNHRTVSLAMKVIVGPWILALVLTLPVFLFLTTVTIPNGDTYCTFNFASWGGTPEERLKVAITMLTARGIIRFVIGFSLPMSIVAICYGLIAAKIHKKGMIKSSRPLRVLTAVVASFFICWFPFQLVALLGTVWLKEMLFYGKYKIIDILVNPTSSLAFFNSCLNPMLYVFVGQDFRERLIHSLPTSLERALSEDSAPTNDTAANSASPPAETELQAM
Assay: Intracellular calcium measurements (FLIPR), agonistic activity in HEK293-hALXR-Gα16 cells
Settings: Fluo-4 calcium FLIPR, normalized to WKYMVm 10 nM
MEASURED METRIC: EC50 (µM)

P: O=C(NCCCCN1CCCC1)[C@H]1[C@H](C(=O)NCc2cc(C(F)(F)F)ccc2F)[C@@H]2C=C[C@H]1C21CC1 (racemic) [Example 365]
Q: O=C(NCCCCN1CCCC1)[C@H]1[C@H](C(=O)NCc2c(F)cc(F)cc2F)[C@@H]2C=C[C@H]1C21CC1 (racemic) [Example 346]
Between the two listed entries P and Q , which has its EC50 at the higher number? Indicate your choice by writing its label. P

###

Target: UniProt P25089
Test: Intracellular calcium measurements (FLIPR), agonistic activity in HEK293-hFPRL2-Gα16 cells
Conditions: Fluo-4 calcium FLIPR, normalized to GLY14-Humanin 100 nM
pEC50: −log10 of the molar value.
MEASURED METRIC: pEC50

Before answering, review these 3 worked examples.
CC(=O)c1csc(NC(=O)[C@H]2[C@H](C(=O)NCCCCN3CCCC3)[C@H]3C=C[C@@H]2C32CC2)n1 (racemic) [Example 344] | 6.38
O=C(NCCCCN1CCCC1)[C@H]1[C@H](C(=O)Nc2ccc(Br)c(C(F)(F)F)c2)[C@@H]2C=C[C@H]1C21CC1 [Example 395] | 7.89
O=C(NCCCCN1CCCC1)[C@H]1[C@H](C(=O)NCc2ccc(Br)cc2)[C@@H]2C=C[C@H]1C21CC1 [Example 286] | 7.49

P: O=C(NC1CCNCC1)[C@H]1[C@H](C(=O)NCc2ccc(Br)cc2)[C@@H]2C=C[C@H]1C21CC1 (racemic) [Example 306]
Q: COc1ccc(CNC(=O)[C@H]2[C@H](C(=O)NCCCCN3CCCC3)[C@H]3C=C[C@@H]2C32CC2)c(F)c1F (racemic) [Example 227]
R: O=C(NCCN1CCOCC1)[C@H]1[C@H](C(=O)Nc2ccc(Br)cc2)[C@@H]2C=C[C@H]1C21CC1 (racemic) [Example 80]
Let's sort these by pEC50, smallest first. Go ahead? Please respond with the labels ordered as the question requires. R, P, Q

###

Biological target: human FPRL2 (Homo sapiens, UniProt P25089)
Sequence (P25089 1-353): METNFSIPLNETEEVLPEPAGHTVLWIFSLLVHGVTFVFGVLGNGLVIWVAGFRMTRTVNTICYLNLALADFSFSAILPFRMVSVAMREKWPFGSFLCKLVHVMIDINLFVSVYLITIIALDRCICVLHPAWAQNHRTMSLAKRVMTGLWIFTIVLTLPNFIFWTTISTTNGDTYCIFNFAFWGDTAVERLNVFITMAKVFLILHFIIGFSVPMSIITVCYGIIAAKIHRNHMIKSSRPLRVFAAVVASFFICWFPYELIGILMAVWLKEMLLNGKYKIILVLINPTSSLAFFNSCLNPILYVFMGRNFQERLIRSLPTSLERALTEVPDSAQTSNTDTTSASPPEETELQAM
Assay: Intracellular calcium measurements (FLIPR), agonistic activity in HEK293-hFPRL2-Gα16 cells
Conditions: Fluo-4 calcium FLIPR, normalized to GLY14-Humanin 100 nM
pEC50: −log10 of the molar value.
MEASURED METRIC: pEC50

O=C(NCCCCN1CCCC1)[C@H]1[C@H](C(=O)Nc2ccc(C(F)(F)F)nc2)[C@@H]2C=C[C@H]1C21CC1 (racemic) [Example 422] | 7.00
Cc1nc(NC(=O)[C@H]2[C@H](C(=O)NCCCCN3CCCC3)[C@H]3C=C[C@@H]2C32CC2)sc1C (racemic) [Example 369] | 6.69
CN1CCN(CCCNC(=O)[C@H]2[C@H](C(=O)NCc3ccc(Br)cc3)[C@@H]3C=C[C@H]2C32CC2)CC1 (racemic) [Example 273] | 6.36
O=C(NCCCCN1CCCC1)[C@H]1[C@H](C(=O)NCc2ccco2)[C@@H]2C=C[C@H]1C21CC1 (racemic) [Example 131] | 6.45
CCN(CC)CCNC(=O)[C@H]1[C@H](C(=O)Nc2ccc(Br)cc2)[C@@H]2C=C[C@H]1C21CC1 (racemic) [Example 66] | 5.65

a: COc1ccc(CNC(=O)[C@H]2[C@H](C(=O)NCCCCN3CCCC3)[C@H]3C=C[C@@H]2C32CC2)cc1F (racemic) [Example 228]
b: CNCCNC(=O)[C@H]1[C@H](C(=O)Nc2ncc(Br)s2)[C@@H]2CC[C@H]1C21CC1 [Example 413]
Lower pEC50: a or b ? Indicate your choice by writing its label. b
(b: 5.68, a: 6.51)

###

Target: human ALX receptor (Homo sapiens)
Experiment: Intracellular calcium measurements (FLIPR), agonistic activity in HEK293-hALXR-Gα16 cells
Details: Fluo-4 calcium FLIPR, normalized to WKYMVm 10 nM
MEASURED METRIC: EC50 (nM)

I: O=C(NCCCN1CCCC1)[C@H]1[C@H](C(=O)NCc2ccc(Br)cc2)[C@@H]2C=C[C@H]1C21CC1 (racemic)
II: O=C(NCCCCN1CCCC1)[C@H]1[C@H](C(=O)Nc2ccc3[nH]ccc3c2)[C@@H]2C=C[C@H]1C21CC1 (racemic)
Between the two listed entries I and II , which has its EC50 at the higher number? Indicate your choice by writing its label. II
(II: 7410 nM, I: 49 nM)

###

Target: UniProtKB P25090
Assay: Intracellular calcium measurements (FLIPR), agonistic activity in HEK293-hALXR-Gα16 cells
Settings: Fluo-4 calcium FLIPR, normalized to WKYMVm 10 nM
MEASURED METRIC: EC50 (nM)

Before answering, review these 2 worked examples.
Cc1nc(CCNC(=O)C2C(C(=O)Nc3ccc(Br)cc3)C3CCC2C32CC2)[nH]c1C (stereo not drawn) [Example 112] | 8.3
O=C(NCCCCN1CCCC1)[C@H]1[C@H](C(=O)NCc2ccc(I)cc2)[C@@H]2C=C[C@H]1C21CC1 (racemic) [Example 200] | 42

I: Cc1cc(Br)ccc1NC(=O)[C@H]1[C@H](C(=O)NCCCCN2CCCC2)[C@H]2C=C[C@@H]1C21CC1 [Example 296]
II: CC(C)CC(CO)NC(=O)C1C(C(=O)Nc2ccc(Br)cc2)C2C=CC1C21CC1 (mixture of isomers) [Example 59]
III: CC(=O)CCCCNC(=O)[C@H]1[C@H](C(=O)NCCCCN2CCCC2)[C@H]2C=C[C@@H]1C21CC1 (racemic) [Example 127]
Given 3 molecules, produce a descending ranking by EC50. Please respond with the labels ordered as the question requires. I, III, II
(I: 275 nM, III: 95 nM, II: 21 nM)

###

Molecular target: UniProt P25089
Sequence (P25089 1-353): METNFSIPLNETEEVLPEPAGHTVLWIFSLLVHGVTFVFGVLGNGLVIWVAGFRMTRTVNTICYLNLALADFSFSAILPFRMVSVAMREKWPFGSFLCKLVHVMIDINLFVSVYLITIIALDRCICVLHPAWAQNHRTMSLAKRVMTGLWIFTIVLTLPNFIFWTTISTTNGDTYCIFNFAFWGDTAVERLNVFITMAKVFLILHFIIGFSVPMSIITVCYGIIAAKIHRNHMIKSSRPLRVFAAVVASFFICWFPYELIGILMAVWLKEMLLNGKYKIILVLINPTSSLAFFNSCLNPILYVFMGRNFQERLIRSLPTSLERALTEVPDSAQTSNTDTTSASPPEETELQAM
Assay: Intracellular calcium measurements (FLIPR), agonistic activity in HEK293-hFPRL2-Gα16 cells
Settings: Fluo-4 calcium FLIPR, normalized to GLY14-Humanin 100 nM
pEC50: −log10 of the molar value.
MEASURED METRIC: pEC50

NCCCNC(=O)[C@H]1[C@H](C(=O)NCc2ccc(Br)cc2)[C@@H]2C=C[C@H]1C21CC1 (racemic) | 5.58

I: O=C(NCCOCCN1CCCC1)[C@H]1[C@H](C(=O)Nc2ccc(Br)cc2)[C@@H]2C=C[C@H]1C21CC1
II: CC(C)(C)OC(=O)N1CCC(CNC(=O)[C@H]2[C@H](C(=O)Nc3ccc(Br)cc3)[C@@H]3C=C[C@H]2C32CC2)CC1 (racemic)
III: O=C(NCCN1CCCC1)[C@H]1[C@H](C(=O)Nc2ccc(Br)cc2)[C@@H]2C=C[C@H]1C21CC1 (racemic)
IV: NC(=O)CCNC(=O)[C@H]1[C@H](C(=O)NCc2ccc(Br)cc2F)[C@@H]2CC[C@H]1C21CC1
Let's sort these by pEC50, smallest first. Go ahead? Please respond with the labels ordered as the question requires. II, III, IV, I
